- Tested on: SR
- experimentDescription: NCI tumour cell line growth inhibition, 48 h
Calls of active or inactive are those of the source. No stated cut-off is given here; in the data, active = GI50 up to about 1.1 µM and inactive = higher.
GI50 values for the compounds below.

Here are 3 compounds together with their reported answers.
compound: CN(C)c1ccc(/C=C2\N=C(c3ccccc3)N(c3ccc4c(c3)Sc3cc(N5C(=O)/C(=C/c6ccc(N(C)C)cc6)N=C5c5ccccc5)ccc3N4)C2=O)cc1
targetOfAssay: SR
GI50: 90.6 µM (inactive)
//
compound: CCCN(C(=O)c1ccccc1)C(C#N)c1ccc(C(C#N)N(CCC)C(=O)c2ccccc2)cc1 (centres undefined)
targetOfAssay: SR
GI50: > 100 µM (inactive)
//
compound: CCN(CC)CCOc1ccc(N2Cc3cc(OC)c(OC)cc3C2=O)cc1
targetOfAssay: SR
GI50: > 100 µM (inactive)

Kindly review the next compound as well.
Any idea what GI50 was measured for CC(C)(C)OC(=O)N(CCCCNC(=O)C(F)(F)F)CCCNC(=O)C(F)(F)F ? > 100 µM (inactive)

###

- Test system: SR
- experimentDescription: NCI tumour cell line growth inhibition, 48 h
Activity calls are given as the source filed them. Rule as the data show it: active = GI50 up to about 1.1 µM and inactive = higher.
Mark one answer only. Choices: Y (active), N (inactive)

Field: example entries. Status: answers known.
compound: Cc1ccc(OP(=O)(Oc2ccc(C)cc2)N2C=Cc3ccccc3C2C#N)cc1 (configuration not stated)
targetOfAssay: SR
group: N
--
compound: C[Si](C)(C)OC1(C#N)c2ccccc2CCCC12CCCC2 (configuration not stated)
targetOfAssay: SR
group: N
--
compound: Oc1ccc2c(c1)CCc1c-2n(CCN2CCOCC2)c2ccc(O)cc12
targetOfAssay: SR
group: N
--
compound: O=C(O)c1ccccc1/C=N/N=C1NCCCCN1
targetOfAssay: SR
group: N
--
compound: CC(C)=CC(=O)Cc1nc2cc(C)c(C)cc2[nH]c1=O
targetOfAssay: SR
group: N

Call for entry COC(=O)c1cc(OC(C)=O)c2c(OC)ccc(OC)c2c1 : N

###

- Test system: HCT-116
- experimentDescription: NCI tumour cell line growth inhibition, 48 h
Calls of active or inactive are those of the source. Rule as the data show it: active = GI50 up to about 1.1 µM and inactive = higher.
GI50 values for the molecules below.

Here are 2 molecules together with their reported answers.
substanceSmiles: Nc1cc2[nH]c(=O)c3cc(Cl)ccc3c2cc1Cl
reported: 5.15 µM (inactive)
//
substanceSmiles: Cc1cc2ccccc2n2c1nc1ccc(O)cc12
reported: > 10 µM (inactive)

Any idea what GI50 was measured for O=C(NCCCCCCNC(=O)c1cccc2ccccc12)c1cccc2ccccc12 ? 14.4 µM (inactive)

###

- Test system: NCI/ADR-RES
- experimentDescription: NCI tumour cell line growth inhibition, 48 h
The source made the active and inactive calls. Rule as the data show it: active = GI50 up to about 1.1 µM and inactive = higher. Peptide text beside a SMILES is read from it. * marks the point of attachment. Cbz = O=C(OCc1ccccc1)*
metric: GI50

molecule: COc1ccc2oc(=N)c(C(N)=S)cc2c1
GI50: 16.8 µM (inactive)

molecule: COc1ccc(OC)c(Cc2cnc3nc(N)nc(N)c3c2C)c1 [PIRITREXIM ISETHIONATE]
GI50: 0.989 µM (active)

molecule: CN(C)c1ccc(/C=C/C(=O)c2ccc(O)cc2)cc1
GI50: 2.98 µM (inactive)

molecule: CCOC(=O)c1c(N2CCOCC2)[nH]c(=O)c(C(c2ccc(N(C)C)cc2)c2c(O)c(C(=O)OCC)c(N3CCOCC3)[nH]c2=O)c1O
GI50: > 100 µM (inactive)

molecule: NC1CC(=O)c2csc(Cl)c21 (stereo not drawn)
GI50: 27 µM (inactive)

molecule: O=C(O)CCC(NC(=O)OCc1ccccc1)C(=O)NC(Cc1c[nH]cn1)C(=O)O (stereo not drawn) (Cbz-Glu-His-OH; configuration not given here)
GI50: > 100 µM (inactive)

molecule: CC(=O)O[C@H]1C(=O)[C@@]2(C)[C@H]([C@H](OC(=O)c3ccccc3)[C@]3(O)C[C@H](OC(=O)[C@H](O)[C@@H](NC(=O)c4ccccc4)c4ccc5ccccc5c4)C(C)=C1C3(C)C)[C@]1(OC(C)=O)CO[C@@H]1C[C@@H]2O
GI50: 15.7 µM (inactive)

Kindly review the next molecule as well.
Any idea what GI50 was measured for COc1cc2nc(-c3cccs3)nc(Cl)c2cc1OC ? > 100 µM (inactive)

###

- Tested on: COLO 205
- experimentDescription: NCI tumour cell line growth inhibition, 48 h
Calls of active or inactive are those of the source. No stated cut-off is given here; in the data, active = GI50 up to about 1.1 µM and inactive = higher.
Mark one answer only. Choices: active, inactive

Field: example entries. Status: answers known.
compound: Cc1c(Cl)ccc2c1NC(=O)C2(O)C1Cc2ccccc2C1=O (configuration not stated)
group: inactive
--
compound: CCOCCOc1ccc(OCCOCC)cc1
group: inactive
--
compound: CCOC(=O)CCC(NC(=O)c1ccc(Nc2nc3cc(C(F)(F)F)ccc3nc2-c2ccccc2)cc1)C(=O)OCC (configuration not stated)
group: inactive
--
compound: COc1cc2nc(-c3ccccc3)cc(O)c2c(OC)c1OC
group: inactive
--
compound: COC(=O)[C@H](Cc1c[nH]c2ccccc12)NP(=O)(OCCC#N)OCC1OC(n2cc(C)c(=O)[nH]c2=O)CC1N=[N+]=[N-] (some centres not stated)
group: inactive

Call for entry CC(Cc1ccc(O)c(O)c1)C(C)Cc1ccc(O)c(O)c1 (configuration not stated) [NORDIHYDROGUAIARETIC ACID] : inactive

Same question for CN(N=O)c1ccc(/C=C/c2ccnc3ccccc23)cc1 please. inactive

Same question for CC#CCCN(CC#N)Cc1ccccc1 please. inactive

###

- System: MDA-MB-231
- experimentDescription: NCI tumour cell line growth inhibition, 48 h
The source made the active and inactive calls. Cut-off read from the data, not from the text of the source: active = GI50 up to about 1.1 µM and inactive = higher.
Mark one answer only. Choices: active, inactive

Field: example entries. Status: answers known.
compound: CN(C)c1ccc(/C=C2\N=C(c3ccccc3)N(c3ccc4c(c3)Sc3cc(N5C(=O)/C(=C/c6ccc(N(C)C)cc6)N=C5c5ccccc5)ccc3N4)C2=O)cc1
group: inactive
--
compound: COc1ccc(-c2cc(O)c3nc4ccccc4n3c2)cc1
group: inactive
--
compound: C=C1c2nc3ccccc3n2C=C(c2ccccc2)N1c1ccc(Cl)cc1
group: inactive
--
compound: O=C(c1ccccc1)c1ccc2[nH]c(-c3c(Cl)c(Cl)c(Cl)c(Cl)c3C(=O)N/N=C/c3cccc(Oc4ccccc4)c3)nc2c1
group: inactive
--
compound: CCN(CC)CCOc1ccc(N2Cc3cc(OC)c(OC)cc3C2=O)cc1
group: inactive

Call for entry Cc1ccc2cccc3c2c1CC1(C3=O)S(=O)(=O)OCCOS1(=O)=O : inactive

Same question for ClCc1nc2ccccc2[nH]1 please. inactive

Same question for COCC([C@@H](O)C(O)C(=O)NCC[C@@H](C)c1nc(/C=C/CC2OC3(C[C@H](O)C2C)OC(C(C[C@H](O)C(C)[C@H](O)C(C)/C=C(C)/C(C)=C/C=C/C(C)=C/C#N)OC)[C@@H](OP(=O)(O)O)C3(C)C)co1)N(C)C (stereo partly drawn) please. active

###

- Tested on: UACC-257
- experimentDescription: NCI tumour cell line growth inhibition, 48 h
Calls of active or inactive are those of the source. Rule as the data show it: active = GI50 up to about 1.1 µM and inactive = higher.
GI50 values for the compounds below.

substanceSmiles: CC[C@]1(Cc2ccc(OC)c(OC)c2)CN(S(=O)(=O)c2ccc(C)cc2)C[C@@H]1OC(C)=O
GI50: > 100 µM (inactive)
//
substanceSmiles: O=C1CCN2c3ccccc3[C@H]3Cc4cccc(c4[C@@H]2C3)CCO1
GI50: 29.4 µM (inactive)

Kindly review the next compound as well.
Any idea what GI50 was measured for O=C(CC(=O)Nc1ccccc1)N/N=C/c1cc(/N=N/c2ccc(Br)cc2)ccc1O ? 2.08 µM (inactive)

###

- System: HOP-18
- experimentDescription: NCI tumour cell line growth inhibition, 48 h
Active and inactive are the calls of the source. Rule as the data show it: active = GI50 up to about 1.1 µM and inactive = higher.
Mark one answer only. Choices: t (active), f (inactive)

compound: CCCCCCCCCCCCCCCCCC(=O)NCCCNCCCNC(=O)CCCCCCCCCCCCCCCCC
group: f

compound: CCOCCOc1ccc(OCCOCC)cc1
group: f

compound: COC(=O)c1ccccc1NC(=O)C(=O)NNC(=O)c1ccncc1
group: f

compound: CCOC(=O)/C=C1/Oc2ccccc2C1(C)O (centres undefined)
group: f

compound: CCc1ccccc1NC(=O)C(=O)CC(=O)c1sc(Nc2ccccc2)nc1C
group: f

Now consider the entry below.
Call for entry O=C(CCc1n[nH]c(=S)o1)Nc1ccccc1C(F)(F)F : f

###

- System: SN12C
- experimentDescription: NCI tumour cell line growth inhibition, 48 h
Calls of active or inactive are those of the source. Rule as the data show it: active = GI50 up to about 1.1 µM and inactive = higher.
Mark one answer only. Choices: y (active), n (inactive)

Call for entry O=C(CCCN1CCC2(CC1)C(=O)NC(=O)N2c1ccccc1)c1ccc(F)cc1 : n

Same question for NC1=NC(Cn2nc(-c3ccccc3)c3ccccc3c2=O)=NNC(=O)N1 please. n

Same question for COc1ccc2oc(=N)c(C(N)=S)cc2c1 please. n

Same question for CC(=O)OC1CCCn2c1nc1c2C(=O)C(C)=C(N2CC2)C1=O (stereo not drawn) please. y

Same question for Cc1ccc(/N=N/c2ccc(O)c(CN(C)C)c2)cc1 please. n
